- TARGET_OR_TEST_SYSTEM: Histamine H3 receptor (Cavia porcellus, UniProt Q9JI35)
- Sequence (Q9JI35 whole entry): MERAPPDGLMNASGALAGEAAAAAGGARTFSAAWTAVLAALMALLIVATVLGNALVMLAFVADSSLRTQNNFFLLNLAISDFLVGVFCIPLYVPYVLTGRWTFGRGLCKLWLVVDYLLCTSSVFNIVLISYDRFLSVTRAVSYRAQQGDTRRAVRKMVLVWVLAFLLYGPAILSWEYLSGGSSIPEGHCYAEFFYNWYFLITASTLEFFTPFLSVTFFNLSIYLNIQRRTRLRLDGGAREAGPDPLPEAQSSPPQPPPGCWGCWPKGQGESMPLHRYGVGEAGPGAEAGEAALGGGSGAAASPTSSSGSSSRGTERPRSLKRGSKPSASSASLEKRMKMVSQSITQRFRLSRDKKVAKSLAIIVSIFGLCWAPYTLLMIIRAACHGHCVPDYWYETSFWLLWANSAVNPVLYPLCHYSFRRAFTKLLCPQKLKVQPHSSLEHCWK
- ASSAY_PROTOCOL: Histamine H3 radioligand binding assay, guinea pig cortex ([3H]-R-α-methylhistamine)
- Parameters: The cortex was dissected, weighed and homogenised in ice-cold 20 mM Hepes-NaOH buffer; from tissue; host or cells: guinea pig cerebral cortex membranes
pKi: −log10 of the molar value.

# STRUCTURE_SMILES_STRING, pKi
rows = [
    ("O=S(=O)(CCCCc1c[nH]cn1)CCc1ccccc1", 7.32),
]

====

- TARGET_OR_TEST_SYSTEM: UniProtKB Q9JI35
- ASSAY_PROTOCOL: Histamine H3 radioligand binding assay, guinea pig cortex ([3H]-R-α-methylhistamine)
- Set-up: The cortex was dissected, weighed and homogenised in ice-cold 20 mM Hepes-NaOH buffer; from tissue; host or cells: guinea pig cerebral cortex membranes
- SETUP_CONDITIONS: guinea pig cortex membranes; [3H]-R-α-methylhistamine 0.1 nM; typical variance ±0.12 log units; read-out: pKI (binding assay) - cortex (converted)
Attribute: Ki
MEASUREMENT_NAME: Ki (nM)

# COMPOUND, READOUT_NUMBER
data = [
    ("O=S(=O)(/C=C/C=C/c1c[nH]cn1)NCc1ccc(Cl)cc1 [Example 41]", 1580),
    ("O=[N+]([O-])CC(CCCc1c[nH]cn1)CS(=O)(=O)NCc1ccc(Cl)cc1 (stereo not drawn) [Example 37]", 6.61),
    ("O=S(=O)(CC(O)CCCc1c[nH]cn1)NCc1ccccc1Cl (stereo not drawn) [Example 20]", 126),
    ("O=S(=O)(CCCCCc1c[nH]cn1)NCCc1ccc(Cl)cc1 [Example 11]", 7.24),
    ("O=S(=O)(CC(O)CCCc1c[nH]cn1)NCC1CCCCC1 (stereo not drawn) [Example 18]", 141),
    ("O=S(=O)(CCCCc1c[nH]cn1)NCCc1ccc(Cl)cc1 [Example 9]", 44.7),
    ("CN(Cc1ccc(Cl)cc1)S(=O)(=O)CCCCCc1c[nH]cn1 [Example 34]", 10.2),
    ("O=S(=O)(/C=C/CCCc1c[nH]cn1)NCc1ccc(Cl)cc1 [Example 32]", 5.89),
    ("O=S(=O)(CCCCCc1c[nH]cn1)NCC12CC3CC(CC(C3)C1)C2 [Example 31]", 186),
]

====

- TARGET_OR_TEST_SYSTEM: Histamine H3 receptor (Cavia porcellus, UniProt Q9JI35)
- ASSAY_PROTOCOL: ileal longitudinal muscle, myenteric plexus functional assay (rightward shift of R-(α)-methylhistamine E/[A] curves, Schild)
- Type: cell-based
- Design: the longitudinal muscle layer and adhering myenteric plexus was teased away; from tissue; host or cells: guinea pig ileal longitudinal muscle with myenteric plexus (organ bath)
- SETUP_CONDITIONS: guinea pig ileum longitudinal muscle myenteric plexus, electrically stimulated; antagonism of R-(α)-methylhistamine; typical variance ±0.15 log units; read-out: pKB (functional assay) - ileum (converted)
MEASUREMENT_NAME: log10(Kb) (log10 of the value in nM)

# MOLECULE, log10(Kb)
records = [
    ("O=S(=O)(CCCCCc1c[nH]cn1)NCc1ccccc1Cl", 2.39),
    ("O=S(=O)(CCCCCc1c[nH]cn1)NCC1CCCCC1", 1.67),
    ("O=S(=O)(CCCCc1c[nH]cn1)CCc1ccccc1", 2.33),
    ("NCCCN(Cc1ccc(Cl)cc1)S(=O)(=O)CCCCCc1c[nH]cn1", 2.18),
    ("O=S(=O)(CCCCc1c[nH]cn1)CCc1ccc(Cl)cc1", 1.03),
    ("O=S(=O)(CCCCc1c[nH]cn1)NCCc1ccc(Cl)cc1", 2.48),
    ("O=S(=O)(/C=C/C=C/c1c[nH]cn1)NCc1ccc(Cl)cc1", 3.42),
    ("O=S(=O)(CCCCCc1c[nH]cn1)NCC12CC3CC(CC(C3)C1)C2", 2.24),
    ("O=S(=O)(CC(O)CCCc1c[nH]cn1)NCc1cccc(Cl)c1 (stereo not shown)", 1.90),
    ("O=S(=O)(CC(O)CCCc1c[nH]cn1)NCc1ccccc1Cl (stereo not shown)", 2.52),
]
